Recorded Kd values for a group of molecules are listed next.
Tested On: human TYK2 (JH2domain-pseudokinase) (Homo sapiens (Human))
Sequence (P29597 556-888): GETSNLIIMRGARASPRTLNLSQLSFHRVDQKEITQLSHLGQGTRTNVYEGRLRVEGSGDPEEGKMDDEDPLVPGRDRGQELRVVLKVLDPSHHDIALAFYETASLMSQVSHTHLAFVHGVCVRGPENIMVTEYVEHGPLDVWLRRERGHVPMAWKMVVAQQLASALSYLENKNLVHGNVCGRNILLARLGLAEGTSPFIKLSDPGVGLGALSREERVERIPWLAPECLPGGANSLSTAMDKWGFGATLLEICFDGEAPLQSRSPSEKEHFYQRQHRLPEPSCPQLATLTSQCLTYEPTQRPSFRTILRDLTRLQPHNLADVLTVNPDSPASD
Procedure Details: TYK2 JH2 Domain Binding Assay (KINOMEscan, DiscoveRx)
Recorded Conditions: 11-point dilution, duplicate

INSERT INTO results (molecule, test_result) VALUES
  ('COc1cc(-c2nc(C)c(C)s2)ccc1Nc1cc(NC(=O)C2CC2)nc2[nH]c(C)nc12 [I-559]', '1 to 10 nM'),
  ('COc1c(Nc2cc(Nc3ccc(C)nn3)nc3[nH]c(C(F)F)nc23)cccc1-c1ccn(C)n1 [I-26]', '0.1 to 0.5 nM'),
  ('CS(=O)(=O)c1cc(C2CCOC2)ccc1Nc1cc(NC(=O)C2CC2)nc2[nH]c(C(F)F)nc12 (stereo not drawn) [I-389]', '0.5 to 1 nM'),
  ('COc1c(Nc2cc(Nc3ccc(N4CCC4)cn3)nc3[nH]c(C(F)F)nc23)cccc1-c1nnn(C)n1 [I-22]', '1 to 10 nM'),
  ('COc1c(Nc2cc(Nc3cc(C(F)(F)F)n(C)n3)nc3[nH]c(C(F)F)nc23)cccc1-c1ncn(C)n1 [I-206]', '1 to 10 nM'),
  ('COc1c(Cl)cccc1Nc1cc(NC(=O)C2CC2)nc2[nH]c(C)nc12 [I-103]', '> 10 nM'),
  ('Cc1nc(-c2ccc(Nc3cc(Nc4cc5n(n4)CCOC5)nc4[nH]c(C(F)F)nc34)c(S(C)(=O)=O)c2)sc1C [I-480]', '0.1 to 0.5 nM'),
  ('Cc1nc2c(Nc3ccc([C@H]4CCCO4)cc3S(C)(=O)=O)cc(NC(=O)[C@@H]3CC3(F)F)nc2[nH]1 [I-422]', '0.5 to 1 nM');

[ask] Can you look up the measured Kd of Cn1cnc(-c2ccc(Nc3cc(NC(=O)C4CC4(F)F)nc4[nH]c(C(F)F)nc34)c(S(C)(=O)=O)c2)c1 (stereo not drawn) [I-381] for me?
[reply] 1 to 10 nM
